- tested target: T1, SIRP-α cynomolgus (cynomolgus, UniProt A0A2K5VYQ9 31-148)
- T1 construct: Soluble analyte in SPR; also called cynomologous monkey SIRP-α
- T1 sequence: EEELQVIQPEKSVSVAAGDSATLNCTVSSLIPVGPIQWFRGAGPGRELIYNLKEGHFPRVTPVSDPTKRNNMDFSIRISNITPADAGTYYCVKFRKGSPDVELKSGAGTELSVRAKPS
- assay: SPR, antibody on GLC chip, SIRP as analyte
value kind: Kd (nM)
I only need the number, in nM, no unit after it.

Worked cases, answers included:
>  <binder>
Anti-SIRP-α antibody 119, light chain Mut, heavy chain Mut (antibody, V domains shown, Whole antibody) VH: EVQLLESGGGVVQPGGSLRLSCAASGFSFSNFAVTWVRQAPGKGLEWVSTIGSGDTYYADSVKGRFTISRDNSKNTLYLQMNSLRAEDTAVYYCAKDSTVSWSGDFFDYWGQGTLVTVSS VL: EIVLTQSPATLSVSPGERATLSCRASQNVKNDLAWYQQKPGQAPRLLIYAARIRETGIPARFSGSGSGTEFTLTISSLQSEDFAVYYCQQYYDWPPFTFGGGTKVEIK

>  <Kd (nM)>
0.2

$$$$
>  <binder>
Anti-SIRP-α antibody 135, light chain Mut, heavy chain wt (antibody, V domains shown, Whole antibody; Light chain mut = F21L, D60A) VH: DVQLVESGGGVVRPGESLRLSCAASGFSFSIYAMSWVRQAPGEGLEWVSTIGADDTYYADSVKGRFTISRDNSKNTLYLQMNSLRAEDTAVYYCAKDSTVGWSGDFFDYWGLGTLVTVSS VL: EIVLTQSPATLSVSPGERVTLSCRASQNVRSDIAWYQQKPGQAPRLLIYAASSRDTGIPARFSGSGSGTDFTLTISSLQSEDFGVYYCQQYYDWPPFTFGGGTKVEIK

>  <Kd (nM)>
0.1

$$$$

Below: the item to evaluate.
Please report the measured Kd for Anti-SIRP-α antibody 119, light chain Mut, heavy chain Mut_V34M (antibody, V domains shown, Whole antibody) VH: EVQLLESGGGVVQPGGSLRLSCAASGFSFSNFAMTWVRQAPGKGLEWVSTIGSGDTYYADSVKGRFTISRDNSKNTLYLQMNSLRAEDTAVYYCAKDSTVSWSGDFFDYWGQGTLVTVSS VL: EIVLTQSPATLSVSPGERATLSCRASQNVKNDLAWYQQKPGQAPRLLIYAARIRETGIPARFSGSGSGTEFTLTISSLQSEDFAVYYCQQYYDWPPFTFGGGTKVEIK
0.12
